- Tested on: rat hepatocytes
- assay info: Metabolite profiling in cryopreserved hepatocytes (in vitro MetID)
- Type: in vitro ADME
- experimental conditions: 30 min, 1 µM SYN2, 37 °C
measured attribute: Relative abundance of metabolites calculated as % of parent (SYN2), Rat

May I ask what Relative abundance of metabolites calculated as % of parent (SYN2), Rat has been recorded for CN(C)c1ccc2cc3ccc(N(C)C)cc3[n+](CCF)c2c1 [SYN2] ?
100 % of parent

Okay, and CNc1ccc2cc3ccc(N)cc3[n+](CCF)c2c1 [M3] ?
27 % of parent

Okay, and CNc1ccc2cc3ccc(N(C)C)cc3[n+](CCF)c2c1 [M1] ?
94 % of parent

Okay, and CN(C)c1ccc2cc3ccc(N(C)C)cc3nc2c1 [M4] ?
Trace
